# Tested on: PBMCs from YF-17DD vaccinees
# Format: cell-based, human
Listed next: entries and their corresponding ELISPOT Max.
Your answer should be a plain number; it is taken to be in SFC/10^6 PBMC.

# count of solved cases: 3
CSCC[C@H](NC(=O)[C@@H](NC(=O)[C@@H](N)C(C)C)C(C)C)C(=O)N[C@H](C(=O)N[C@@H](CO)C(=O)N[C@@H](CC(C)C)C(=O)N[C@@H](C)C(=O)N[C@@H](CC(C)C)C(=O)N[C@H](C(=O)NCC(=O)N[C@@H](C)C(=O)N[C@@H](C)C(=O)N[C@@H](CC(C)C)C(=O)N[C@@H](Cc1c[nH]cn1)C(=O)N1CCC[C@H]1C(=O)O)C(C)C)[C@@H](C)O [NS2b97–111] :: 26
CC[C@H](C)[C@H](NC(=O)[C@@H](NC(=O)[C@H](CCC(=O)O)NC(=O)CNC(=O)[C@H](CC(N)=O)NC(=O)[C@H](CCCNC(=N)N)NC(=O)[C@H](CC(N)=O)NC(=O)[C@@H](NC(=O)[C@@H](NC(=O)[C@@H]1CCCN1C(=O)[C@H](CO)NC(=O)CNC(=O)[C@H](CO)NC(=O)[C@@H](NC(=O)CN)[C@@H](C)O)[C@@H](C)CC)C(C)C)C(C)C)C(=O)O [NS3_137–151] :: 137
CC[C@H](C)[C@H](NC(=O)[C@H](C)NC(=O)[C@H](CCCNC(=N)N)NC(=O)[C@H](CO)NC(=O)CNC(=O)[C@H](CCCCN)NC(=O)[C@H](C)NC(=O)[C@H](CCCCN)NC(=O)CNC(=O)[C@H](Cc1ccccc1)NC(=O)[C@@H](N)CCC(=O)O)C(=O)N[C@@H](Cc1c[nH]c2ccccc12)C(=O)N[C@@H](Cc1ccc(O)cc1)C(=O)N[C@@H](CCSC)C(=O)N[C@@H](Cc1c[nH]c2ccccc12)C(=O)O [NS5_465–479] :: 1593

Next molecule, please.
IN: I'm curious: which ELISPOT Max was measured for CC[C@H](C)[C@H](NC(=O)[C@H](C)NC(=O)[C@H](CCCNC(=N)N)NC(=O)[C@H](CO)NC(=O)CNC(=O)[C@H](CCCCN)NC(=O)[C@H](C)N)C(=O)N[C@@H](Cc1c[nH]c2ccccc12)C(=O)N[C@@H](Cc1ccc(O)cc1)C(=O)N[C@@H](CCSC)C(=O)N[C@@H](Cc1c[nH]c2ccccc12)C(=O)N[C@@H](CC(C)C)C(=O)NCC(=O)N[C@@H](C)C(=O)N[C@@H](CCCNC(=N)N)C(=O)O [NS5_469–483] tested on PBMCs from YF-17DD vaccinees?
OUT: 1828
